System: Streptococcus agalactiae
ASSAY DETAILS: Antibacterial activity against Streptococcus agalactiae group B clinical isolate by broth microdilution method
Format: functional
Reported MIC50 is given for each of the following compounds.
PARAMETER: MIC50

# COMPOUND, DATA VALUE
rows = [
    ("CC1(C)S[C@@H]2[C@H](NC(=O)Cc3ccccc3)C(=O)N2[C@H]1C(=O)O [PENICILLIN G]", "≤ 0.06 µg/mL"),
    ("CN(C)[C@@H]1C(O)=C(C(N)=O)C(=O)[C@@]2(O)C(O)=C3C(=O)c4c(O)cccc4[C@@](C)(O)[C@H]3C[C@@H]12 [TETRACYCLINE]", "> 8 µg/mL"),
    ("C[C@H]1COc2c(N3CCN(C)CC3)c(F)cc3c(=O)c(C(=O)O)cn1c23.C[C@H]1COc2c(N3CCN(C)CC3)c(F)cc3c(=O)c(C(=O)O)cn1c23.O [LEVOFLOXACIN]", "0.5 µg/mL"),
    ("CO/N=C(\\C(=O)N[C@@H]1C(=O)N2C(C(=O)O)=C(COC(N)=O)CS[C@H]12)c1ccco1 [CEFUROXIME]", "≤ 0.12 µg/mL"),
    ("CO/N=C(\\C(=O)N[C@@H]1C(=O)N2C(C(=O)O)=C(CSc3nc(=O)c(O)nn3C)CS[C@H]12)c1csc(N)n1 [CEFTRIAXONE]", "0.06 µg/mL"),
]

* * *

Tested on: Streptococcus constellatus
ASSAY DETAILS: Antibacterial activity against Streptococcus constellatus clinical isolate by broth microdilution method
Assay type: functional

# CHEMICAL SMILES, ASSAY TARGET, REL, MIC / µg/mL
records = [
    ("CC(=O)NC[C@H]1CN(c2ccc(N3CCOCC3)c(F)c2)C(=O)O1", "Streptococcus constellatus", "=", 0.5),
    ("CC1(C)S[C@@H]2[C@H](NC(=O)Cc3ccccc3)C(=O)N2[C@H]1C(=O)O", "Streptococcus constellatus", "≤", 0.06),
    ("CN[C@H](CC(C)C)C(=O)N[C@H]1C(=O)N[C@@H](CC(N)=O)C(=O)N[C@H]2C(=O)N[C@H]3C(=O)N[C@H](C(=O)N[C@H](C(=O)O)c4cc(O)cc(O)c4-c4cc3ccc4O)[C@H](O)c3ccc(c(Cl)c3)Oc3cc2cc(c3O[C@@H]2O[C@H](CO)[C@@H](O)[C@H](O)[C@H]2O[C@H]2C[C@](C)(N)[C@H](O)[C@H](C)O2)Oc2ccc(cc2Cl)[C@H]1O", "Streptococcus constellatus", "=", 0.25),
    ("CC[C@H]1OC(=O)[C@H](C)[C@@H](O[C@H]2C[C@@](C)(OC)[C@@H](O)[C@H](C)O2)[C@H](C)[C@@H](O[C@@H]2O[C@H](C)C[C@H](N(C)C)[C@H]2O)[C@](C)(O)C[C@@H](C)C(=O)[C@H](C)[C@@H](O)[C@]1(C)O", "Streptococcus constellatus", "≤", 0.015),
    ("CCCCCCCCCCNCCN[C@@]1(C)C[C@H](O[C@H]2[C@H](Oc3c4cc5cc3Oc3ccc(cc3Cl)[C@@H](O)[C@@H](NC(=O)[C@@H](CC(C)C)NC)C(=O)N[C@@H](CC(N)=O)C(=O)N[C@H]5C(=O)N[C@H]3C(=O)N[C@H](C(=O)N[C@H](C(=O)O)c5cc(O)c(CNCP(=O)(O)O)c(O)c5-c5cc3ccc5O)[C@H](O)c3ccc(c(Cl)c3)O4)O[C@H](CO)[C@@H](O)[C@@H]2O)O[C@@H](C)[C@H]1O", "Streptococcus constellatus", "=", 0.015),
    ("CCC[C@@H]1C[C@@H](C(=O)N[C@@H]([C@H]2O[C@H](SC)[C@H](O)[C@@H](O)[C@H]2O)[C@H](C)Cl)N(C)C1", "Streptococcus constellatus", "≤", 0.03),
    ("CC[C@H]1OC(=O)[C@H](C)C(=O)[C@H](C)[C@@H](O[C@@H]2O[C@H](C)C[C@H](N(C)C)[C@H]2O)[C@](C)(OC)C[C@@H](C)C(=O)[C@H](C)[C@H]2N(CCCCn3cnc(-c4cccnc4)c3)C(=O)O[C@]12C", "Streptococcus constellatus", "=", 0.004),
]

* * *

Tested on: Staphylococcus capitis
ASSAY DETAILS: Antibacterial activity against methicillin resistant coagulase-negative Staphylococcus capitis clinical isolate by broth microdilution method
Type: functional
PARAMETER: MIC90 (µg/mL)

# CHEMICAL SMILES, ASSAY TARGET, PARAMETER, ENDPOINT UNIT, REL, DATA VALUE
data = [
    ("CC[C@H]1OC(=O)[C@H](C)[C@@H](O[C@H]2C[C@@](C)(OC)[C@@H](O)[C@H](C)O2)[C@H](C)[C@@H](O[C@@H]2O[C@H](C)C[C@H](N(C)C)[C@H]2O)[C@](C)(O)C[C@@H](C)C(=O)[C@H](C)[C@@H](O)[C@]1(C)O", "Staphylococcus capitis", "MIC90", "µg/mL", ">", 16),
    ("CN[C@H](CC(C)C)C(=O)N[C@H]1C(=O)N[C@@H](CC(N)=O)C(=O)N[C@H]2C(=O)N[C@H]3C(=O)N[C@H](C(=O)N[C@H](C(=O)O)c4cc(O)cc(O)c4-c4cc3ccc4O)[C@H](O)c3ccc(c(Cl)c3)Oc3cc2cc(c3O[C@@H]2O[C@H](CO)[C@@H](O)[C@H](O)[C@H]2O[C@H]2C[C@](C)(N)[C@H](O)[C@H](C)O2)Oc2ccc(cc2Cl)[C@H]1O", "Staphylococcus capitis", "MIC90", "µg/mL", "=", 2),
    ("CCCCCCCCCC(=O)N[C@@H](Cc1c[nH]c2ccccc12)C(=O)N[C@H](CC(N)=O)C(=O)N[C@@H](CC(=O)O)C(=O)N[C@@H]1C(=O)NCC(=O)N[C@@H](CCCN)C(=O)N[C@@H](CC(=O)O)C(=O)N[C@H](C)C(=O)N[C@@H](CC(=O)O)C(=O)NCC(=O)N[C@H](CO)C(=O)N[C@@H]([C@H](C)CC(=O)O)C(=O)N[C@@H](CC(=O)c2ccccc2N)C(=O)O[C@@H]1C", "Staphylococcus capitis", "MIC90", "µg/mL", "=", 1),
    ("CC(=O)NC[C@H]1CN(c2ccc(N3CCOCC3)c(F)c2)C(=O)O1", "Staphylococcus capitis", "MIC90", "µg/mL", "=", 2),
    ("CCCCCCCCCCNCCN[C@@]1(C)C[C@H](O[C@H]2[C@H](Oc3c4cc5cc3Oc3ccc(cc3Cl)[C@@H](O)[C@@H](NC(=O)[C@@H](CC(C)C)NC)C(=O)N[C@@H](CC(N)=O)C(=O)N[C@H]5C(=O)N[C@H]3C(=O)N[C@H](C(=O)N[C@H](C(=O)O)c5cc(O)c(CNCP(=O)(O)O)c(O)c5-c5cc3ccc5O)[C@H](O)c3ccc(c(Cl)c3)O4)O[C@H](CO)[C@@H](O)[C@@H]2O)O[C@@H](C)[C@H]1O", "Staphylococcus capitis", "MIC90", "µg/mL", "=", 1),
    ("CC[C@H]1OC(=O)[C@H](C)C(=O)[C@H](C)[C@@H](O[C@@H]2O[C@H](C)C[C@H](N(C)C)[C@H]2O)[C@](C)(OC)C[C@@H](C)C(=O)[C@H](C)[C@H]2N(CCCCn3cnc(-c4cccnc4)c3)C(=O)O[C@]12C", "Staphylococcus capitis", "MIC90", "µg/mL", ">", 8),
    ("CC(=O)N[C@@H]1[C@H](Oc2c3cc4cc2Oc2ccc(cc2Cl)[C@@H](O[C@@H]2O[C@@H](CO)[C@@H](O)[C@H](O)[C@@H]2NC(C)=O)[C@@H]2NC(=O)[C@H](NC(=O)[C@@H]4NC(=O)[C@H]4NC(=O)[C@@H](Cc5ccc(c(Cl)c5)O3)NC(=O)[C@H](N)c3ccc(O)c(c3)Oc3cc(O)cc4c3)c3ccc(O)c(c3)-c3c(O[C@H]4O[C@H](CO)[C@@H](O)[C@@H](O)[C@@H]4O)cc(O)cc3[C@@H](C(=O)O)NC2=O)O[C@@H](CO)[C@@H](O)[C@@H]1O", "Staphylococcus capitis", "MIC90", "µg/mL", "=", 32),
]

* * *

ASSAY DETAILS: Antibacterial activity against methicillin resistant coagulase-negative Staphylococcus hominis subsp. novobiosepticus clinical isolate by broth microdilution method
Assay type: functional

# CHEMICAL SMILES, REL, MIC50 (µg/mL)
rows = [
    ("CCCCCCCCCCNCCN[C@@]1(C)C[C@H](O[C@H]2[C@H](Oc3c4cc5cc3Oc3ccc(cc3Cl)[C@@H](O)[C@@H](NC(=O)[C@@H](CC(C)C)NC)C(=O)N[C@@H](CC(N)=O)C(=O)N[C@H]5C(=O)N[C@H]3C(=O)N[C@H](C(=O)N[C@H](C(=O)O)c5cc(O)c(CNCP(=O)(O)O)c(O)c5-c5cc3ccc5O)[C@H](O)c3ccc(c(Cl)c3)O4)O[C@H](CO)[C@@H](O)[C@@H]2O)O[C@@H](C)[C@H]1O", "=", 0.5),
    ("CN[C@H](CC(C)C)C(=O)N[C@H]1C(=O)N[C@@H](CC(N)=O)C(=O)N[C@H]2C(=O)N[C@H]3C(=O)N[C@H](C(=O)N[C@H](C(=O)O)c4cc(O)cc(O)c4-c4cc3ccc4O)[C@H](O)c3ccc(c(Cl)c3)Oc3cc2cc(c3O[C@@H]2O[C@H](CO)[C@@H](O)[C@H](O)[C@H]2O[C@H]2C[C@](C)(N)[C@H](O)[C@H](C)O2)Oc2ccc(cc2Cl)[C@H]1O", "=", 2),
    ("CC[C@H]1OC(=O)[C@H](C)C(=O)[C@H](C)[C@@H](O[C@@H]2O[C@H](C)C[C@H](N(C)C)[C@H]2O)[C@](C)(OC)C[C@@H](C)C(=O)[C@H](C)[C@H]2N(CCCCn3cnc(-c4cccnc4)c3)C(=O)O[C@]12C", ">", 8),
    ("CCCCCCCCCC(=O)N[C@@H](Cc1c[nH]c2ccccc12)C(=O)N[C@H](CC(N)=O)C(=O)N[C@@H](CC(=O)O)C(=O)N[C@@H]1C(=O)NCC(=O)N[C@@H](CCCN)C(=O)N[C@@H](CC(=O)O)C(=O)N[C@H](C)C(=O)N[C@@H](CC(=O)O)C(=O)NCC(=O)N[C@H](CO)C(=O)N[C@@H]([C@H](C)CC(=O)O)C(=O)N[C@@H](CC(=O)c2ccccc2N)C(=O)O[C@@H]1C", "=", 0.25),
    ("CC[C@H]1OC(=O)[C@H](C)[C@@H](O[C@H]2C[C@@](C)(OC)[C@@H](O)[C@H](C)O2)[C@H](C)[C@@H](O[C@@H]2O[C@H](C)C[C@H](N(C)C)[C@H]2O)[C@](C)(O)C[C@@H](C)C(=O)[C@H](C)[C@@H](O)[C@]1(C)O", ">", 16),
    ("CC(=O)NC[C@H]1CN(c2ccc(N3CCOCC3)c(F)c2)C(=O)O1", "=", 1),
    ("CC(=O)N[C@@H]1[C@H](Oc2c3cc4cc2Oc2ccc(cc2Cl)[C@@H](O[C@@H]2O[C@@H](CO)[C@@H](O)[C@H](O)[C@@H]2NC(C)=O)[C@@H]2NC(=O)[C@H](NC(=O)[C@@H]4NC(=O)[C@H]4NC(=O)[C@@H](Cc5ccc(c(Cl)c5)O3)NC(=O)[C@H](N)c3ccc(O)c(c3)Oc3cc(O)cc4c3)c3ccc(O)c(c3)-c3c(O[C@H]4O[C@H](CO)[C@@H](O)[C@@H](O)[C@@H]4O)cc(O)cc3[C@@H](C(=O)O)NC2=O)O[C@@H](CO)[C@@H](O)[C@@H]1O", "=", 4),
]
